src = patent US5776718A

- Target or system: cathepsin L (Homo sapiens, UniProt P07711)
- Sequence (P07711 114-333, species assumed): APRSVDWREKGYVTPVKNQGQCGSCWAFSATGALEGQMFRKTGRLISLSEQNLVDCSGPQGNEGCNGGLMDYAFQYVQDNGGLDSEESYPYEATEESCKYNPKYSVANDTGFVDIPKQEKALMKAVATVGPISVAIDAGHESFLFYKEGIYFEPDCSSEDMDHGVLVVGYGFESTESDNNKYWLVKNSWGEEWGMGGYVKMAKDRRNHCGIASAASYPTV
- Test details: Inhibition of cathepsin L, fluorogenic substrate Z-Phe-Arg-AMC
- Assay type: biochemical
- Assay conditions: 50 mM acetate, pH 5.5, 2.5 mM EDTA, 2.5 mM DTT; Dixon plot; read-out: cathepsin L (Ki μM)
So basically: is Ki under 10 µM? Then 1. Not under? Then 0.

{"columns": ["Compound", "Assigned category"],
 "data": [
  ["O=C(O)CCC(=O)N[C@@H](Cc1ccc2ccccc2c1)C(=O)N[C@@H](CCc1ccccc1)CCS(=O)(=O)c1ccc2ccccc2c1", 1]
]}

Query: In the record for O=C(NC(CCc1ccccc1)S(=O)(=O)c1ccccc1)[C@H](Cc1ccccc1)NC(=O)N1CCOCC1 (stereo partly drawn) , is Ki less than 10 µM?
Response: 0

Query: In the record for O=C(N[C@@H](CCc1ccccc1)CS(=O)(=O)c1ccccc1)[C@H](Cc1ccccc1)NC(=O)N1CCOCC1 , is Ki less than 10 µM?
Response: 0
